# measurement_target: T1, histidine tagged HMGB1 (High-Mobility-Group-Protein 1) (Homo sapiens (Human), UniProt P09429 1-215, limits assumed, labeled with the his-tag specific NT-647 dye)
# T1 construct: also called high-mobility protein box 1; not shown: histidine tag
# T1 sequence: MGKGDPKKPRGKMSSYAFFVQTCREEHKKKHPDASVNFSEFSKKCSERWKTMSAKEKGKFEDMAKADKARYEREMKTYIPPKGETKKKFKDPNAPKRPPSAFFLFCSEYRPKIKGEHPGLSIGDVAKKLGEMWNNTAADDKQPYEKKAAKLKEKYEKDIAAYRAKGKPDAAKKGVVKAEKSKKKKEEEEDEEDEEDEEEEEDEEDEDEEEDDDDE
# assay: MST, NT-647-labelled His-tagged HMGB1, peptide titrated
readout_kind: Kd (µM)
Respond with the bare value in µM.

Quick one: Kd for ERWIH (Last five residues of HBP08 (ERWIH)) [Pentapept-2] ?
200
